- Tested on: Mus musculus
- ASSAY COMMENT: Drug concentration in blood sample was analyzed by reversed phase HPLC 30 min (c30) after oral application of 120 mg/kg in a standardized formulation
- Format: functional
// NOT MET strictly below 6 µM in c30; MET otherwise

SMILES NOTATION	ASSIGNED LABEL
COC(=O)N[C@H](C(=O)N[C@@H](Cc1ccccc1)[C@@H](O)CN(CCC(C)C)NC(=O)[C@@H](NC(=O)OC)C(C)C)C(C)C	NOT MET
CCOC(=O)N[C@H](C(=O)NN(Cc1ccc(-c2cncs2)cc1)C[C@H](O)[C@H](Cc1ccccc1)NC(=O)[C@@H](NC(=O)OC)C(C)(C)C)C(C)C	NOT MET
COC(=O)N[C@H](C(=O)NN(Cc1ccc(-c2ccccc2)cc1)C[C@H](O)[C@H](Cc1ccccc1)NC(=O)[C@@H](NC(=O)OC)C(C)(C)C)C(C)C	NOT MET
COC(=O)N[C@H](C(=O)N[C@@H](Cc1ccccc1)[C@@H](O)CN(Cc1ccc(-c2nnn(C)n2)cc1)NC(=O)[C@@H](NC(=O)OC)C(C)(C)C)C(C)(C)C	MET
COC(=O)N[C@H](C(=O)N[C@@H](Cc1ccccc1)[C@@H](O)CN(Cc1ccc(-c2ccccc2)cc1)NC(=O)[C@@H](NC(=O)OC)C(C)(C)C)C(C)(C)C	NOT MET
COC(=O)N[C@H](C(=O)N[C@@H](Cc1ccccc1)[C@@H](O)CN(Cc1ccc(-c2ccccc2)cc1)NC(=O)[C@@H](NC(=O)OC)C(C)C)C(C)C	NOT MET
CCOC(=O)N[C@H](C(=O)N[C@@H](Cc1ccccc1)[C@@H](O)CN(CC1CCCCC1)NC(=O)[C@@H](NC(=O)OCC)C(C)C)C(C)C	MET

Reference source for all entries: ChEMBL document CHEMBL1131075
